Molecular target: GLP-1R (Homo sapiens)
Sequence (P43220 24-463): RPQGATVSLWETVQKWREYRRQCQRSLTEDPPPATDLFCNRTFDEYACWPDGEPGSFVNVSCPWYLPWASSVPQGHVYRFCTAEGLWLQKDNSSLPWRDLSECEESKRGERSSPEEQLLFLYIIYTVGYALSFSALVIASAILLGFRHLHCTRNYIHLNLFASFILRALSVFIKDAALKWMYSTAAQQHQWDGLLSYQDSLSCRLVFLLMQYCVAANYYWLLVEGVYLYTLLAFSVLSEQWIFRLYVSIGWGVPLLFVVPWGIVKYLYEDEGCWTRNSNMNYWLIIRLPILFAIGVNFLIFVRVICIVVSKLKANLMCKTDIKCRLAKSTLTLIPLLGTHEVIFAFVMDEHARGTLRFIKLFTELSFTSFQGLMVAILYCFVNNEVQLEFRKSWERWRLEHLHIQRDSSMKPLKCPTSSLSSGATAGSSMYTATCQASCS
Sequence (P01275 100-127 partner limits assumed): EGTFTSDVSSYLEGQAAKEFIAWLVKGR
Test: EC20 GLP-1(9-36) PAM cAMP assay: dose response of compound in the presence of fixed concentration of GLP-1(9-36)
Conditions: GLP-1R CRE-bla CHO-K1 cells, compound dose response in presence of fixed concentration of GLP-1(9-36)
pEC50: −log10 of the molar value.
PROPERTY MEASURED: pEC50

1) CC(C)(C)c1ccc(C(=O)N[C@@H](Cc2ccc(-c3ncc(OCc4ccccc4)cn3)cc2)C(=O)O)cc1 [Compound 258] | 5.00 to 5.30
2) CC(=O)Nc1ccc(-c2nc(-c3ccc(C[C@H](NC(=O)c4ccc(C(C)(C)C)cc4)C(=O)O)cc3)no2)cc1 [Compound 44] | 5.30 to 5.60
3) Cc1cccc(-c2cnc(-c3ccc(C[C@H](NC(=O)c4ccc(C(C)(C)C)cc4)C(=O)O)cc3)nc2)c1 [Compound 217] | 5.00 to 5.30
4) CCCCCCCOc1ccc(-c2cnc(-c3ccc(C[C@H](NC(=O)c4ccc(C(C)(C)C)s4)C(=O)NC(CN(C)C)C(=O)O)cc3)nc2)cc1 (stereo partly drawn) [Compound 337] | 5.60 to 6.10
5) CCCCCCCOc1ccc(-c2cnc(-c3ccc(C[C@H](NC(=O)c4cc(C(C)C)no4)C(=O)O)cc3)nc2)cc1 [Compound 130] | > 6.10
6) CC(C)(C)c1ccc(-c2cnc(-c3ccc(C[C@H](NC(=O)c4ccc(C(C)(C)C)s4)C(=O)N[C@@H](CCC(=O)O)C(=O)O)cc3)nc2)cc1 [Compound 363] | 5.60 to 6.10
